- assay-procedure: growth inhibition, single agents and combos, UWB1.289, cell-based, BGB or cisplatin combos, synergistic combos for chromothripsis tumors (AID 1671456);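 further: cells exposed to compound for four days; 0% = vehicle DMSO and 100% = killing by high DMSO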
- condition-details: UWB1.289 ovarian carcinoma cells, at 0.5 µM, hits give high values
Entries and their inhibition
Enter your answer as a number in %; do not include the unit.

O=c1c(O)c(-c2ccc(O)c(O)c2)oc2cc(O)cc(O)c12 | -3.55
Cc1nc2ccc(CN(C)c3ccc(C(=O)N[C@@H](CCC(=O)O)C(=O)O)s3)cc2c(=O)[nH]1 | 29.7
O=c1oc2c(O)c(O)cc3c(=O)oc4c(O)c(O)cc1c4c23 | -3.64
Nc1nc(=S)c2[nH]cnc2[nH]1 | 63.1
NC(=O)NO | 5.4
O=NN(CCCl)C(=O)NCCCl | -5.7

Query: Give its inhibition value. Item: "C[C@H]1COc2c(C3(N)CC3)c(F)cc3c(=O)c(C(=O)O)cn1c23"
Reply: 2.11

Query: Give its inhibition value. Item: "Nc1nc2c(ncn2COC(CO)CO)c(=O)[nH]1"
Reply: 8.41

Query: Give its inhibition value. Item: CC(N)C12CC3CC(CC(C3)C1)C2 (centres undefined)
Reply: -6.71
